- Assay text: NCI Yeast Anticancer Drug Screen. Data for the rad52 strain (AID 147);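 note: 0% = growth of vehicle-treated control cultures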
- Measurement conditions: S. cerevisiae rad52 mutant growth inhibition; at 11.0 µM; hits give high values
- Procedure: Growth inhibition of yeast strains with defined genetic alterations is measured as a screen for potential anti-cancer activity. Selected strains with alterations in DNA damage repair or cell cycle control were exposed to compounds and growth inhibition was measured relative to vehicle treated controls. The strain used in this assay is rad52
About 79,000 compounds went through this panel and 15% of them were active in at least one assay; those are over-represented in the sample as a whole.
Endpoint label: growth inhibition (%)
All answers are understood in %, so give the number only.

CC(C)(CN1CCCCC1)C(=O)CC(SCCS(=O)(=O)O)c1ccccc1 (stereo not drawn)    25
COC(=O)c1cnc(Cl)c([N+](=O)[O-])c1    94
CNC(=S)N/N=C(/C)CCC/C(C)=N/NC(=S)NC    64
O=C(C#Cc1ccccc1)/C=C/c1ccccc1    29
N#CC1OB(O)c2ccccc21 (stereo not drawn)    -5
Cc1ccc(NC(=O)CCC(=O)C(C)C(=O)c2ccccc2)c(C)c1 (stereo not drawn)    3
O=C(Nc1ccc(Cl)cc1)c1cc2cc(N=Nc3ccccc3Cl)ccc2oc1=O    58

Challenge: Param item = CCN(CC)C(=S)SC(=S)N(CC)CC ; retrieve measured growth inhibition.
Response given: 27

---

- Assay text: NCI Yeast Anticancer Drug Screen. Data for the mlh1 strain (AID 171);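 note: 0% = growth of vehicle-treated control cultures of the same strain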
- Measurement conditions: S. cerevisiae mlh1 strain growth inhibition; at 33.0 µM; hits give high values
The panel holds about 79,000 compounds, 15% with a hit somewhere; the sample as a whole holds those more often.
Endpoint label: growth inhibition (%)
All answers are understood in %, so give the number only.

Example entries and their recorded answers appear below.
COc1cc(C(=O)C=O)cc(OC)c1OC    -8
N#CSCC1COc2ccccc2O1 (stereo not given)    77
COc1cc([C@@H]2c3cc4c(cc3[C@@H](NC(=O)NO)[C@H]3COC(=O)[C@H]23)OCO4)cc(OC)c1O    2
NNc1ccccc1-c1nc2ccccc2[nH]1    -3

Challenge: Param item = Cn1c(-c2ccc(/C=N\N3CCN(/N=C/c4ccc(-c5c[n+]6ccsc6n5C)cc4)CC3)cc2)c[n+]2ccsc12 ; retrieve measured growth inhibition.
Response given: 47

---

- Assay text: NCI Yeast Anticancer Drug Screen. Data for the rad14 strain (AID 159);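 note: 0% = growth of vehicle-treated control cultures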
- Measurement conditions: S. cerevisiae rad14 strain growth inhibition; at 100.0 µM
About 79,000 compounds went through this panel and 15% of them were active in at least one assay; those are over-represented in the sample as a whole. Calls of active or inactive are those of the source. No stated cut-off is given here; in the data, active means growth inhibition above about 70%; inactive means the rest.
I would appreciate it if you answered using one of these outcomes: yes (active), no (inactive)

Some solved entries appear below for comparison.
Cc1ccc(NC(Nc2ccc(C)cc2C)=C(C(Cl)=C(Cl)Cl)[N+](=O)[O-])c(C)c1    yes
CC(C)(N=Nc1ccc(Cl)cc1)[N+](=O)[O-]    yes
O=C(c1ccccc1)[C@H]1Nc2ccc(Cl)cc2[C@H]2OCCC[C@@H]12    yes
CCN(CC)CCNc1ccc2nc(C)n3c4ccc(OC)cc4c(=O)c1c23    no
CC1CCN(CCC(=O)c2ccc([N+](=O)[O-])cc2)CC1    no

Challenge: # fetch the recorded call for O=c1c2ccccc2nc(-c2cccc([N+](=O)[O-])c2)n1O here
Response given: yes

Challenge: Another: CNC(=O)OCc1c(COC(=O)NC)c(C)n(-c2ccc(Br)cc2)c1C
Response given: yes

Challenge: Another: O=C(C(Cl)=C(N1CCCCC1)N1CCCCC1)C(Cl)Cl
Response given: no

Challenge: Another: CCCCS/C(=C(/C#N)C(N)=O)c1cc2c([nH]1)CCCC2
Response given: no

Challenge: Another: O=C1c2ccccc2-c2cc3ccccc3c(=O)n21
Response given: no

Challenge: Another: Cc1cccc2c1C1c3c(C)cccc3C(CC(=O)O)CC1CC2 (stereo not given)
Response given: yes
